# TEST: protein stability index of a GFP-peptide fusion (GPS, HEK-293T) (PSI 1-6); higher = more stable;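 further: 24-mer peptide tiles fused after GFP, lentivirally expressed, FACS-sorted into six equal bins by GFP/DsRed ratio, decoded by Illumina sequencing, PSI is the read-weighted mean bin number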
# ASSAY_CONTEXT: treatment: MLN4924 1 uM, 8 h; c terminus: a fixed tail appended
Listing: protein stability index of selected sequences
In your answer, state the number alone without any accompanying words.

Below, each entry is followed by its recorded protein stability index result.
* DMIYVSGGFDGSRRHTSMERYDPN [KLHL12] | 4
* KWDAENAIQQMGGQWLGGRQIRTN [TIA1] | 3.56
* SGRARQQDEEMLELPAPAEVAAKN [MLH1] | 5.2

Kindly consider the entry below.
Recorded protein stability index for LAARRQWRDECLMRLAKLKSQVQP [CRYL1] , please?
2.52
